Biological target: T1, hu-MCSP(D3 domain)-avi-his (human, UniProt Q6UVK1 1582-2224)
T1 construct: Recombinant D3 domain with avi and his tags; also called human MCSP(D3 domain)-avi-his; Human MCSP D3
T1 sequence: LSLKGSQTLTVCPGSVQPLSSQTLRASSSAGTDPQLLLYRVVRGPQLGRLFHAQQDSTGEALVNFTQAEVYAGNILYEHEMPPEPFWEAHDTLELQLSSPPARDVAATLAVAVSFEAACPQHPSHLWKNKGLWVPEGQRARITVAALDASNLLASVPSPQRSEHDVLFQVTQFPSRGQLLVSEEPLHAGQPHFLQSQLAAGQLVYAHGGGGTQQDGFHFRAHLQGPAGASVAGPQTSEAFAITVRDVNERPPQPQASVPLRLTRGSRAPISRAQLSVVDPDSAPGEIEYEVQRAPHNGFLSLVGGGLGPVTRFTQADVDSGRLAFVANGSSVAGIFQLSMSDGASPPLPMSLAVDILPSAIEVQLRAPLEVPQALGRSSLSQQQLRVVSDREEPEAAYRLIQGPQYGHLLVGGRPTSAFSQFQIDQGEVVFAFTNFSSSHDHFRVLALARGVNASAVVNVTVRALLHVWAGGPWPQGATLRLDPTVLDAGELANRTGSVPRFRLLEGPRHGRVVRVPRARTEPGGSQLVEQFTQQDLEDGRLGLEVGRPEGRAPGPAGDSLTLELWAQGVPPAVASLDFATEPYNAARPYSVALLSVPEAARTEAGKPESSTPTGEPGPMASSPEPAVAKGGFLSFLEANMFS
Assay: SPR ProteOn XPR36, 25 C; Fab captured via anti-human F(ab')2, MCSP D3 as analyte
Assign Kd to each entry below.

Below are worked cases with known answers.
- binder: "Parental M4-3/ML2 Fab (Fab, V domains shown, Soluble Fab with Flag tag, bacterial supernatant or purified; also called non-matured parental clone) VH: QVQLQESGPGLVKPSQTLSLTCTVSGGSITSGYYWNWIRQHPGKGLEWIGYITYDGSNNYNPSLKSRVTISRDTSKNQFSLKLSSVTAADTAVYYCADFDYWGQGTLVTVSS VL: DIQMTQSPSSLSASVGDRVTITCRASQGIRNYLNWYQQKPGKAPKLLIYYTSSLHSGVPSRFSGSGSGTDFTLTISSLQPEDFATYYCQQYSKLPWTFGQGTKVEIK"
  Kd: "5 nM"
- binder: "M4-3/ML2(C5) Fab (Fab, V domains shown, Soluble Fab with Flag tag) VH: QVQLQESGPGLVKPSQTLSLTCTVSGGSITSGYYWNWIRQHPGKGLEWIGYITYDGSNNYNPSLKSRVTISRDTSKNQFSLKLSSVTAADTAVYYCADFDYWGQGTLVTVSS VL: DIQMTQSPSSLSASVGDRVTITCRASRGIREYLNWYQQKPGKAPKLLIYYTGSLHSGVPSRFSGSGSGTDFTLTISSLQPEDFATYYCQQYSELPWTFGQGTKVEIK"
  Kd: "0.7 nM"

Query M4-3(A7)/ML2 Fab (Fab, V domains shown, Soluble Fab with Flag tag) VH: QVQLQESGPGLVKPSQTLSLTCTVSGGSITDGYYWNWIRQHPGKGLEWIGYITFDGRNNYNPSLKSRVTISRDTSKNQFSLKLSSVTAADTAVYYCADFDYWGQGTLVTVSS VL: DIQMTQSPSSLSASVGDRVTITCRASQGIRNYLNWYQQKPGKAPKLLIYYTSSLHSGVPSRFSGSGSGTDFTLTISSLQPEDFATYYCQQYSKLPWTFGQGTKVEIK yields Kd of 0.02 nM
